- tested-target: PKR (Homo sapiens, UniProt P19525)
- Sequence (P19525 whole entry): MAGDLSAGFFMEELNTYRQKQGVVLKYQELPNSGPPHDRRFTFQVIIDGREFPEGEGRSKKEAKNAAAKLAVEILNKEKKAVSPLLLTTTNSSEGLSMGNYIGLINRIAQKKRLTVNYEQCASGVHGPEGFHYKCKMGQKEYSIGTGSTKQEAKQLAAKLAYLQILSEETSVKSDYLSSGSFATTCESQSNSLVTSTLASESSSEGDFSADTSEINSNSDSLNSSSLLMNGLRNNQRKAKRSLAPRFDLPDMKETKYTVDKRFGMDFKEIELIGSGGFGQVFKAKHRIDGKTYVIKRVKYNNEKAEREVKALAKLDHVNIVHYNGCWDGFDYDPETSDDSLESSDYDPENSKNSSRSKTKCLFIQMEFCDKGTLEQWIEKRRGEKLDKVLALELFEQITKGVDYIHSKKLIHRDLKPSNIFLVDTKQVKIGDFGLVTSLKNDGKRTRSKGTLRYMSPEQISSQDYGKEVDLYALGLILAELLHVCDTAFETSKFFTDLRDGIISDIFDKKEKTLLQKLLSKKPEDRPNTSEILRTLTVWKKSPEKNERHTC
measured-property: IC50

Prompt: Give the reported IC50 for Cc1nc(N)c2c(-c3ccc(NC(=O)[C@H](O)c4cccc(C(F)(F)F)c4)cc3C)cn(C)c2n1 [Compound 26] (system: PKR (Homo sapiens, UniProt P19525)).
Completion: > 10 µM

---

- method-notes: Kinetic aqueous solubility in PBS pH 7.4
- Type: physicochemical
- measurement-parameters: phosphate buffered saline (PBS), 25 °C, aqueous buffer, kinetic from dmso stock
Quick reference for solubility kinetic at 1 h among some compounds
The figure you give is taken to be in µM; do not add the unit.

entry-smiles | value-units | observed-measurement
Cc1nc(N)c2c(-c3ccc(NC(=O)[C@H](O)c4cc(F)cc(C(F)(F)F)c4)cc3C)cn(C)c2n1 | µM | 10
Cc1nc(N)c2c(-c3ccc(NC(=O)[C@H](O)c4cccc(F)c4)c(F)c3F)cn(C)c2n1 | µM | 66

Prompt: Fill in the blank: the reported solubility kinetic at 1 h of `Cc1nc(N)c2c(-c3ccc(NC(=O)[C@H](O)c4cc(F)cc(F)c4)cc3C)cn(C)c2n1` is ____.
Completion: 19
